target: recombinant human KLK5 (human) (UniProt Q9Y337); experiment: Kiapp assay curve, 0.125 nM KLK5, Z-VPR-pNA
Sequence (Q9Y337 67-293): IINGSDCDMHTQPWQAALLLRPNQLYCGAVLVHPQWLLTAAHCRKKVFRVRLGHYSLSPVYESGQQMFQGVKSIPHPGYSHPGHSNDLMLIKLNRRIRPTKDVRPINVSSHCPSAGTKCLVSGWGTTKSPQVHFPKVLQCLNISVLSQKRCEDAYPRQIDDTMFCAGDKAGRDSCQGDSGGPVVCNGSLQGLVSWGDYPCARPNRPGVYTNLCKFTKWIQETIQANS
endpoint: IC50 (read off the curve) (nM)

- binder: "9H3 (antibody, V domains shown) VH: QSVKESEGGLFKPTDTLTLTCTVSGFSLSGYGVSWVRQAPGKGLEYIGFIGSGGSAYYASWAKSRSTITRNTNLNTVTLKMTRLTAADTATYFCARDNVGGDMSLDIWGPGTLVTVSS VL: DIVMTQTPASVSEPVGGTVTIKCQASQNINNYLSWYQQKPGQPPKQLIYAASTLASGVPSRFKGSGSGTQFTLTISDLECADAATYYCHQDYTSNNVDNTFGGGTEVVVK"
  valueMeasured: 0.07
- binder: "10H3 (antibody, V domains shown) VH: QSVKESEGGLIKPTDTLTLTCTVSGFSLSTFAINWVRQAPGNGLEWIGAIGRGGSAYYASWAKSRSTITKNTNLNTVTLKMTRPTAADTATYFCARENAGSGWGELDIWGPGTLVTVSS VL: AYEMTQTPASVEVAVGGTVTINCQASESISSDLAWYQQKPGQRPKLLIYAASTLASGVPSRFKGSGSGTEFTLSISGVQCADAATYYCQQGYTWNNVDNVFGGGTEVVVK"
  valueMeasured: 0.3
- binder: "10C8 (antibody, V domains shown) VH: QSVKESEGGLFKPTDNLTLTCTVSGFSLSSYGVSWVRQAPGNGLEYIGFIGSGGFAYYASWAKSRSTITRNTNLNTVTLKMTSLTAADTATYFCARDDVGGGRSLDIWGPGTVVTVSS VL: NIVMTQTPASVEVAMGGTVIIKCQASQSISTYLSWYQQKPGQPPKLLIYSASTLASGVSSRFEGSGSGTQFTLTISGVQCADAATYYCHQDYTSNNVDNTFGGGTEVVVK"
  valueMeasured: 0.2
